Numbers sourced from patent US20250242035A1.

The entries below come with measured Binding to DC-SIGNR (20 μg/ml)(RFU) values attached.
- TARGET_OR_TEST_SYSTEM: DC-SIGNR (Homo sapiens, UniProt Q9H2X3)
- Construct: purchased R&D Systems 162-D2
- Sequence (Q9H2X3 whole entry): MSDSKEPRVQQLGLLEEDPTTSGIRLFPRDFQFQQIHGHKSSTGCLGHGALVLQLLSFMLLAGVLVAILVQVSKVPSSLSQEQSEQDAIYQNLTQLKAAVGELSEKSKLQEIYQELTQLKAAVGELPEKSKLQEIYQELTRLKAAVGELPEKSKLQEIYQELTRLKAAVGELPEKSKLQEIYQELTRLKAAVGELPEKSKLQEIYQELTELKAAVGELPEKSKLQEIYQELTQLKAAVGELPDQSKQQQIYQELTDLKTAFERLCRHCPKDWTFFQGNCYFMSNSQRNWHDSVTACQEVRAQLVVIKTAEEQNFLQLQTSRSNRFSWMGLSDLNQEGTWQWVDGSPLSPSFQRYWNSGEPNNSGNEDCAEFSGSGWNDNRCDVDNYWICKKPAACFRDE
- ASSAY_SUMMARY: In vitro glycan array protein binding, DC-SIGNR
- MEASUREMENT_CONDITIONS: 20 μg/mL protein, glycan printed at 100 μM
// note: answer is a bare numeric in RFU

CC(=O)NC1C(OCC2OC(OC3C(CO)OC(O)C(O)C3O)C(O)C(OC3OC(CO)C(O)C(O)C3NC(C)=O)C2O)OC(CO)C(O)C1O (stereo not shown)    862190.8
CC(=O)N[C@H]1[C@H](O[C@H]2[C@@H](O)[C@@H](CO)O[C@@H](O[C@H]3[C@H](O)[C@@H](O)C(O)O[C@@H]3CO)[C@@H]2O)O[C@H](CO)[C@@H](O[C@@H]2O[C@H](CO)[C@H](O)[C@H](O)[C@H]2O)[C@@H]1O[C@@H]1O[C@@H](C)[C@@H](O)[C@@H](O)[C@@H]1O (stereo partly shown)    718967.2
CC(=O)N[C@H]1[C@H](O[C@H]2[C@@H](O)[C@@H](CO)O[C@@H](O[C@H]3[C@H](O)[C@@H](O)C(O)O[C@@H]3CO)[C@@H]2O)O[C@H](CO)[C@@H](O)[C@@H]1O (stereo partly shown)    1047468

Ask | Item under review: CC(=O)N[C@H]1[C@H](O[C@H]2[C@@H](O)[C@@H](CO)O[C@@H](O[C@H]3[C@H](O)[C@@H](O)C(O)O[C@@H]3CO)[C@@H]2O)O[C@H](CO)[C@@H](O[C@@H]2O[C@H](CO)[C@H](O)[C@@H](O[C@@H]3O[C@H](CO)[C@@H](O)[C@H](O)[C@H]3NC(C)=O)[C@H]2O)[C@@H]1O (stereo partly shown) . Reported Binding to DC-SIGNR (20 μg/ml)(RFU)?
Reply | 723698.8
